Source listed as patent US10414769B2.

target_of_assay: MAPKAPK2 (Homo sapiens, UniProt P49137)
Construct: purchased Life Technologies PV 3317
Sequence (P49137 whole entry): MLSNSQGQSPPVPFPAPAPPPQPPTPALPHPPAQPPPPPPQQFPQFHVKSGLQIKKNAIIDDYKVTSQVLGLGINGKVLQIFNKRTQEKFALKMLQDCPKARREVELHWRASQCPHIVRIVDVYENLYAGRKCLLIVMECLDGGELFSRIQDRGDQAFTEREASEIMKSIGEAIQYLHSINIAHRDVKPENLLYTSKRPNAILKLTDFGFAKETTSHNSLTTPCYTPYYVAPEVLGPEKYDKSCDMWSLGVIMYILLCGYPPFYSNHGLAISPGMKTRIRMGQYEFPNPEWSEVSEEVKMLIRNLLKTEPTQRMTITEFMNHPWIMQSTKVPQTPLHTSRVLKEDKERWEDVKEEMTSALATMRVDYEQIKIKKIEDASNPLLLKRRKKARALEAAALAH
test_summary: Z'-LYTE kinase selectivity assay MAPKAPK2
Format: biochemical

| compound | target_of_assay | inhibition at 1 µM, % |
| --- | --- | --- |
| C[C@@H]1Cc2nn(C)c(-c3ccccc3)c2-c2nc(Nc3ccn(CCN4CCN(CC(C)(C)O)CC4)n3)ncc21 [Compound I-3] | MAPKAPK2 (Homo sapiens, UniProt P49137) | 2 |
| C[C@@H]1Cc2nn(C)c(-c3ccccc3)c2-c2nc(Nc3ccn(CCN4CCN(CC(=O)OC5CCOCC5)CC4)n3)ncc21 [Compound I-8] | MAPKAPK2 (Homo sapiens, UniProt P49137) | 5 |
| CC(O)CN1CCN(CCn2ccc(Nc3ncc4c(n3)-c3c(nn(C)c3-c3ccccc3)C[C@H]4C)n2)CC1 (stereo partly shown) [Compound I-7] | MAPKAPK2 (Homo sapiens, UniProt P49137) | 5 |
| COCCN1CCN(CCn2ccc(Nc3ncc4c(n3)-c3c(nn(C)c3-c3ccccc3)C[C@H]4C)n2)CC1 [Compound I-11] | MAPKAPK2 (Homo sapiens, UniProt P49137) | -2 |
| C[C@@H]1Cc2nn(C)c(-c3ccccc3)c2-c2nc(Nc3ccn(CCN4CCN(CC5CCCO5)CC4)n3)ncc21 (stereo partly shown) [Compound I-9] | MAPKAPK2 (Homo sapiens, UniProt P49137) | 3 |
| C[C@@H]1Cc2nn(C)c(-c3ccccc3)c2-c2nc(Nc3ccn(CCN4CCOCC4)n3)ncc21 [Compound I-2] | MAPKAPK2 (Homo sapiens, UniProt P49137) | 1 |
| C[C@@H]1Cc2nn(C)c(-c3ccccc3)c2-c2nc(Nc3ccn(CCN4CCN(C)CC4)n3)ncc21 [Compound I-1] | MAPKAPK2 (Homo sapiens, UniProt P49137) | -3 |

* * *

target_of_assay: MYLK2 (skMLCK) (Homo sapiens)
Construct: purchased Life Technologies PV 3757
test_summary: Z'-LYTE kinase selectivity assay MYLK2
Assay type: biochemical

| compound | result_units | inhibition at 1 µM |
| --- | --- | --- |
| C[C@@H]1Cc2nn(C)c(-c3ccccc3)c2-c2nc(Nc3ccn(CCN4CCOCC4)n3)ncc21 [Compound I-2] | % | 3 |
| CC(O)CN1CCN(CCn2ccc(Nc3ncc4c(n3)-c3c(nn(C)c3-c3ccccc3)C[C@H]4C)n2)CC1 (stereo partly shown) [Compound I-7] | % | 23 |
| COCCN1CCN(CCn2ccc(Nc3ncc4c(n3)-c3c(nn(C)c3-c3ccccc3)C[C@H]4C)n2)CC1 [Compound I-11] | % | 16 |
| C[C@@H]1Cc2nn(C)c(-c3ccccc3)c2-c2nc(Nc3ccn(CCN4CCN(CC5CCCO5)CC4)n3)ncc21 (stereo partly shown) [Compound I-9] | % | 10 |
| C[C@@H]1Cc2nn(C)c(-c3ccccc3)c2-c2nc(Nc3ccn(CCN4CCN(C)CC4)n3)ncc21 [Compound I-1] | % | 16 |
| C[C@@H]1Cc2nn(C)c(-c3ccccc3)c2-c2nc(Nc3ccn(CCN4CCN(CC(=O)OC5CCOCC5)CC4)n3)ncc21 [Compound I-8] | % | 13 |
| C[C@@H]1Cc2nn(C)c(-c3ccccc3)c2-c2nc(Nc3ccn(CCN4CCN(CC(C)(C)O)CC4)n3)ncc21 [Compound I-3] | % | 12 |

* * *

inhibition at 1 µM values, listed per item
target_of_assay: AKT2 (PKB beta) (Homo sapiens)
Construct: purchased Life Technologies PV3975
Sequence (P31751 whole entry): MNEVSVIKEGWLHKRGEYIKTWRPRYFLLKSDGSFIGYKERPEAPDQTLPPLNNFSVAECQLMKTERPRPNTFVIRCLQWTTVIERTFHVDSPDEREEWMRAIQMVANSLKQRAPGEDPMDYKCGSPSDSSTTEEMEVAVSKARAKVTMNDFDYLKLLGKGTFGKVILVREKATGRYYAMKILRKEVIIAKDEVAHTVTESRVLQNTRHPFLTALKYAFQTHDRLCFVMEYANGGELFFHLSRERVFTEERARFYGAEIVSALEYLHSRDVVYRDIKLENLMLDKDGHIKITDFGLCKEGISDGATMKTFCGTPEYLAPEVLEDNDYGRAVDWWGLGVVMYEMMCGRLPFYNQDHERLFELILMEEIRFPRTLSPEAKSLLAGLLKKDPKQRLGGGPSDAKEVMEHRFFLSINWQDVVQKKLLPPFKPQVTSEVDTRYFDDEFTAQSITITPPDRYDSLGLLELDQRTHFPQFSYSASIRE
test_summary: Z'-LYTE kinase selectivity assay AKT2
Type: biochemical
quantity_kind: inhibition at 1 µM

| compound | target_of_assay | observed_value |
| --- | --- | --- |
| C[C@@H]1Cc2nn(C)c(-c3ccccc3)c2-c2nc(Nc3ccn(CCN4CCN(CC(=O)OC5CCOCC5)CC4)n3)ncc21 | AKT2 (PKB beta) (Homo sapiens) | 4% |
| CC(O)CN1CCN(CCn2ccc(Nc3ncc4c(n3)-c3c(nn(C)c3-c3ccccc3)C[C@H]4C)n2)CC1 (stereo partly shown) | AKT2 (PKB beta) (Homo sapiens) | 7% |
| COCCN1CCN(CCn2ccc(Nc3ncc4c(n3)-c3c(nn(C)c3-c3ccccc3)C[C@H]4C)n2)CC1 | AKT2 (PKB beta) (Homo sapiens) | 3% |
| C[C@@H]1Cc2nn(C)c(-c3ccccc3)c2-c2nc(Nc3ccn(CCN4CCN(CC(C)(C)O)CC4)n3)ncc21 | AKT2 (PKB beta) (Homo sapiens) | 7% |
| C[C@@H]1Cc2nn(C)c(-c3ccccc3)c2-c2nc(Nc3ccn(CCN4CCOCC4)n3)ncc21 | AKT2 (PKB beta) (Homo sapiens) | 1% |
| C[C@@H]1Cc2nn(C)c(-c3ccccc3)c2-c2nc(Nc3ccn(CCN4CCN(CC5CCCO5)CC4)n3)ncc21 (stereo partly shown) | AKT2 (PKB beta) (Homo sapiens) | 2% |
| C[C@@H]1Cc2nn(C)c(-c3ccccc3)c2-c2nc(Nc3ccn(CCN4CCN(C)CC4)n3)ncc21 | AKT2 (PKB beta) (Homo sapiens) | 3% |

* * *

target_of_assay: MAP3K8 (COT) (Homo sapiens, UniProt P41279)
Construct: purchased Life Technologies PV 4313
Sequence (P41279 whole entry): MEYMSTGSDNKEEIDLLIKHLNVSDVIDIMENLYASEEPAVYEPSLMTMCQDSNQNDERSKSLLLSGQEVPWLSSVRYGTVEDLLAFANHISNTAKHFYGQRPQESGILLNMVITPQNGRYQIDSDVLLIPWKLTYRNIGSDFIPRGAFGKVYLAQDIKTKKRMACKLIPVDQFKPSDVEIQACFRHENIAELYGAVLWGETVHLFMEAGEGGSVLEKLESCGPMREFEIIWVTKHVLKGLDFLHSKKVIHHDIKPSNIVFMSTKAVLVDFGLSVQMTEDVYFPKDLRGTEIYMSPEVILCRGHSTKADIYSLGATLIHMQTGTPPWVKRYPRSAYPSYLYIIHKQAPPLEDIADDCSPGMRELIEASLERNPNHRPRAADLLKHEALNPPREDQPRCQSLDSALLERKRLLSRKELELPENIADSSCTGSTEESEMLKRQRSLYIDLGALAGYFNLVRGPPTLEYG
test_summary: Z'-LYTE kinase selectivity assay MAP3K8
Type: biochemical
inhibition at 1 µM values, listed per item

| compound | inhibition at 1 µM / % |
| --- | --- |
| CC(O)CN1CCN(CCn2ccc(Nc3ncc4c(n3)-c3c(nn(C)c3-c3ccccc3)C[C@H]4C)n2)CC1 (stereo partly drawn) [Compound I-7] | 42 |
| C[C@@H]1Cc2nn(C)c(-c3ccccc3)c2-c2nc(Nc3ccn(CCN4CCOCC4)n3)ncc21 [Compound I-2] | 57 |
| C[C@@H]1Cc2nn(C)c(-c3ccccc3)c2-c2nc(Nc3ccn(CCN4CCN(C)CC4)n3)ncc21 [Compound I-1] | 27 |

* * *

inhibition at 1 µM values, listed per item
target_of_assay: CAMK2D (CaMKII delta) (Homo sapiens, UniProt Q13557)
Construct: purchased Life Technologies PV 3373
test_summary: Z'-LYTE kinase selectivity assay CAMK2D
Type: biochemical

| compound | target_of_assay | result_units | inhibition at 1 µM |
| --- | --- | --- | --- |
| CC(O)CN1CCN(CCn2ccc(Nc3ncc4c(n3)-c3c(nn(C)c3-c3ccccc3)C[C@H]4C)n2)CC1 (stereo partly shown) [Compound I-7] | CAMK2D (CaMKII delta) (Homo sapiens, UniProt Q13557) | % | 64 |
| C[C@@H]1Cc2nn(C)c(-c3ccccc3)c2-c2nc(Nc3ccn(CCN4CCN(C)CC4)n3)ncc21 [Compound I-1] | CAMK2D (CaMKII delta) (Homo sapiens, UniProt Q13557) | % | 53 |
| C[C@@H]1Cc2nn(C)c(-c3ccccc3)c2-c2nc(Nc3ccn(CCN4CCN(CC(=O)OC5CCOCC5)CC4)n3)ncc21 [Compound I-8] | CAMK2D (CaMKII delta) (Homo sapiens, UniProt Q13557) | % | 40 |
| C[C@@H]1Cc2nn(C)c(-c3ccccc3)c2-c2nc(Nc3ccn(CCN4CCOCC4)n3)ncc21 [Compound I-2] | CAMK2D (CaMKII delta) (Homo sapiens, UniProt Q13557) | % | 47 |
| COCCN1CCN(CCn2ccc(Nc3ncc4c(n3)-c3c(nn(C)c3-c3ccccc3)C[C@H]4C)n2)CC1 [Compound I-11] | CAMK2D (CaMKII delta) (Homo sapiens, UniProt Q13557) | % | 38 |
| C[C@@H]1Cc2nn(C)c(-c3ccccc3)c2-c2nc(Nc3ccn(CCN4CCN(CC(C)(C)O)CC4)n3)ncc21 [Compound I-3] | CAMK2D (CaMKII delta) (Homo sapiens, UniProt Q13557) | % | 58 |
| C[C@@H]1Cc2nn(C)c(-c3ccccc3)c2-c2nc(Nc3ccn(CCN4CCN(CC5CCCO5)CC4)n3)ncc21 (stereo partly shown) [Compound I-9] | CAMK2D (CaMKII delta) (Homo sapiens, UniProt Q13557) | % | 69 |

* * *

Test system: TC-71 (EWING'S sarcoma) cells
test_summary: Cell proliferation assay TC-71 (Alamar Blue)
Format: cell-based
experimental_context: anti-proliferative effect, TC-71 cells, 72 h; read-out: TC71 EC50
pEC50: −log10 of the molar value.
pEC50 values, listed per item

| compound | pEC50 |
| --- | --- |
| C[C@@H]1Cc2nn(C)c(-c3ccccc3)c2-c2nc(Nc3ccn(CCN4CCN(CC5CCCO5)CC4)n3)ncc21 (stereo partly shown) [Compound I-9] | 8.27 |
| C[C@@H]1Cc2nn(C)c(-c3ccccc3)c2-c2nc(Nc3ccn(CCN4CCN(CC(C)(C)O)C(=O)C4)n3)ncc21 [Compound I-5] | 8.40 |
| C[C@@H]1Cc2nn(C)c(-c3ccccc3)c2-c2nc(Nc3ccn(CCN4CCN(CC(=O)OC5CCOC5)CC4)n3)ncc21 (stereo partly shown) [Compound I-6] | 8.30 |
| COCCN1CCN(CCn2ccc(Nc3ncc4c(n3)-c3c(nn(C)c3-c3ccccc3)C[C@H]4C)n2)CC1 [Compound I-11] | 8.43 |
| C[C@@H]1Cc2nn(C)c(-c3ccccc3)c2-c2nc(Nc3ccn(CCN4CCN(C)CC4)n3)ncc21 [Compound I-1] | 8.58 |
| C[C@@H]1Cc2nn(C)c(-c3ccccc3)c2-c2nc(Nc3ccn(CCN4CCN(CC(=O)OC5CCOCC5)CC4)n3)ncc21 [Compound I-8] | 8.22 |
| CC(C(=O)OC[C@H]1CCCN1)N1CCN(CCn2ccc(Nc3ncc4c(n3)-c3c(nn(C)c3-c3ccccc3)C[C@H]4C)n2)CC1 (stereo partly shown) [Compound I-4] | 8.17 |
